Form field: Ki (one value per entry).
Biological target: Cy5-labelled Mcl1 (amino acids 171-321) C286S protein (UniProtKB Q07820) (Homo sapiens (Human), UniProt Q07820, C286S)
Sequence (Q07820 171-321 C286S): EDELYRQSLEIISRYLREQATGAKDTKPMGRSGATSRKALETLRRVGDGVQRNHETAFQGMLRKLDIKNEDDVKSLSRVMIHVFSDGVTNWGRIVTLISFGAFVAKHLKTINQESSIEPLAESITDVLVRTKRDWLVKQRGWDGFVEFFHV
Assay: Inhibition of Mcl-1 by the fluorescence quenching assay (Example A, Method B)
Type: binding
Endpoint: Ki (nM)

>>> numeric_value("C[C@@H](COc1ccnc2c1C(F)CCC2)C[C@H]1Cc2ccccc2[C@]12CC[C@@](Nc1cccc(Cl)c1)(C(=O)O)CC2 (single isomer, unassigned) [Example 685]")
5.8
>>> numeric_value("C[C@@H](COc1ccnc2c1[C@H](C)CCC2)C[C@H]1Cc2cc3c(cc2[C@]12CC[C@@](Nc1cccc(Cl)c1)(C(=O)O)CC2)CCO3")
0.0256
>>> numeric_value("COCCOc1ccc2c(c1)[C@]1(CC[C@@](Nc3cccc(Cl)c3)(C(=O)O)CC1)[C@@H](C[C@@H](C)COc1ccnc3ccsc13)C2")
2.1
>>> numeric_value("C[C@@H](COc1ccnc2c1[C@@H](C)CCC2)C[C@@H]1Cc2cc3c(cc2[C@]12CC[C@@](Nc1cccc(Cl)c1)(C(=O)O)CC2)OCO3")
3.58
>>> numeric_value("C[C@@H](COc1ccnc2c1[C@@H](C)CCC2)C[C@H]1Cc2ccc(O)cc2[C@]12CC[C@@](Nc1cccc(Cl)c1)(C(=O)O)CC2")
8.89
>>> numeric_value("C[C@@H]1CCCc2nccc(OCC(CC3=Cc4ccccc4[C@]34CC[C@@](Nc3cccc(Cl)c3)(C(=O)O)CC4)C(F)F)c21 (single isomer, unassigned) [Example 517]")
4.98
>>> numeric_value("C[C@@H](COc1ccnc2c1[C@H](C)CCC2)CC1=Cc2cc(F)c(F)cc2[C@]12CC[C@@](Nc1cccc(Cl)c1)(C(=O)O)CC2")
1.42
>>> numeric_value("C[C@@H](COc1ccnc2c1[C@H](C)CCC2)C[C@H]1Cc2cc3c(cc2[C@]12CC[C@@](Nc1cccc(Cl)c1)(C(=O)OCCCS(=O)(=O)O)CC2)OCO3")
55.6
>>> numeric_value("C[C@@H](COc1ccnc2c1[C@H](C)CC[C@H]2F)C[C@H]1Cc2cc3c(cc2[C@]12CC[C@@](Nc1cccc(Cl)c1)(C(=O)O)CC2)OCO3")
0.0308
>>> numeric_value("CC[C@@H]1COc2cc3c(cc2O1)C[C@H](C[C@@H](C)COc1ccnc2c1[C@H](C)CCC2)[C@]31CC[C@](Nc2cccc(Cl)c2)(C(=O)O)CC1")
0.102
>>> numeric_value("Cc1cccc2c1C=C(C[C@@H](C)COc1ccnc3c1[C@H](C)CCC3)[C@]21CC[C@](Nc2cccc(Cl)c2)(C(=O)O)CC1")
3.22
>>> numeric_value("Cc1cc(OCCC[C@H]2Cc3ccccc3[C@]23CC[C@@](Nc2cccc(Cl)c2)(C(=O)O)CC3)c2cc[nH]c2c1")
152
